Below is a list of entries, each paired with its recorded viability at 28.5 h, 10 µM value.
- procedure_text: in vitro
- applied_conditions: human, hela cells, % viability

Below, each entry is followed by its recorded viability at 28.5 h, 10 µM result.
[
  {
    "molecule": "Cc1noc(C)c1CC(=O)NC(C)c1nc2ccccc2s1 (stereo not shown)",
    "measured": "107%"
  },
  {
    "molecule": "COCCCN1C(=O)C(O)=C(C(=O)c2ccc(C)o2)C1c1ccc(OC)cc1 (stereo not shown)",
    "measured": "103%"
  },
  {
    "molecule": "O=C(NC(=O)C1CCNCC1)Nc1ccc(F)cc1F",
    "measured": "115%"
  }
]

Consider the record given below.
Query :: If you can, please state the reported viability at 28.5 h, 10 µM value of N/C(CS(=O)(=O)Cc1ccc(F)cc1)=N/O .
Result :: 89.2%
